The entries below are paired with their reported DC50.
biological target: androgen receptor (Homo sapiens, UniProt P10275, T878A); construct: host or cells: LNCaP.FGC; assay: Androgen receptor degradation assay using Western blot analysis; assay type: cell-based; conditions: read-out: AR DC50 (concentration needed for 50% AR degradation); LNCaP.FGC cells, serial 10x dilutions from 100 nM
Sequence (P10275 whole entry T878A): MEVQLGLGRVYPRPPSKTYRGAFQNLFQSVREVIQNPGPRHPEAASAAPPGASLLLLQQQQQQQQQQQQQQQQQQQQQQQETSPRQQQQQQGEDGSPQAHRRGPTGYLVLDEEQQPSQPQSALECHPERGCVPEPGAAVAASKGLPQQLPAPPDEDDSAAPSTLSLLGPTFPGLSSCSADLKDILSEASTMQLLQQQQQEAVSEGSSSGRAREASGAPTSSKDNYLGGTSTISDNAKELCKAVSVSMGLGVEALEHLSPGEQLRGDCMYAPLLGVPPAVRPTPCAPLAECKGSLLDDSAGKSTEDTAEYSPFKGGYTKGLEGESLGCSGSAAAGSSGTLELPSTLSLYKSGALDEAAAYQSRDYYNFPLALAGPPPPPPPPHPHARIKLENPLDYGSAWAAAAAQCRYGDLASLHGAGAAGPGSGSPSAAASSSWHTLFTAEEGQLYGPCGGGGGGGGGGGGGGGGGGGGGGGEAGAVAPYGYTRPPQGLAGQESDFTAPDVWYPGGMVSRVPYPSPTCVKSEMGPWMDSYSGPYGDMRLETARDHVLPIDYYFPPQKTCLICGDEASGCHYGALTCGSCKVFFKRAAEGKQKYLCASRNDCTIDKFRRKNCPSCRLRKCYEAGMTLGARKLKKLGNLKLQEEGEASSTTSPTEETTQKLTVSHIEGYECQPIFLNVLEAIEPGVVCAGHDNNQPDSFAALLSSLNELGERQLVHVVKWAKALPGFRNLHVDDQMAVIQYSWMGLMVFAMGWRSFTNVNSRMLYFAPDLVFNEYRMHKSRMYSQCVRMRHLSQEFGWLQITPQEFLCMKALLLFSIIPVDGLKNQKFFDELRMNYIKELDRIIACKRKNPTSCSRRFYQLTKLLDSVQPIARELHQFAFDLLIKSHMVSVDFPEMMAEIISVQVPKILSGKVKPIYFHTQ
Sequence (Q96SW2 whole entry partner): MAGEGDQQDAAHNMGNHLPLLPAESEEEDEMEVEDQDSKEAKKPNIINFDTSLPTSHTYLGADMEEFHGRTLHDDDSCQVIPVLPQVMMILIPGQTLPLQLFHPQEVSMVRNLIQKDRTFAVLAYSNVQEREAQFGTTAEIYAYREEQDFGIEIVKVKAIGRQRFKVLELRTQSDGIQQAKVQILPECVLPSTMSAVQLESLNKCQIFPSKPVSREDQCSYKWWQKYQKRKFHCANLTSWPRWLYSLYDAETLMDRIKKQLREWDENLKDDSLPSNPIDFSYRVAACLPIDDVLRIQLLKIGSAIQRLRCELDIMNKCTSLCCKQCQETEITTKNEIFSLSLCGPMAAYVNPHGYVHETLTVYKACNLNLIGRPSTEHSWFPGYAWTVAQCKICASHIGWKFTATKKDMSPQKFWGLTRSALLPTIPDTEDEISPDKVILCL

Examples with their reported DC50 follow.
[
  {
    "Compound": "CCn1c2c(c3ccc(OCCCOC4CC5(CCN(c6ccc(C(=O)N[C@H]7CC[C@H](Oc8ccc(C#N)c(Cl)c8)CC7)nn6)C5)C4)cc31)C(=O)N(C1CCC(=O)NC1=O)C2=O (stereo partly shown)",
    "DC50": "0.025 to 0.1 µM"
  },
  {
    "Compound": "CCn1c2c(c3ccc(OCC(=O)N4CCC5(CC4)CN(c4ccc(C(=O)N[C@H]6CC[C@H](Oc7ccc(C#N)c(Cl)c7)CC6)nn4)C5)cc31)C(=O)N(C1CCC(=O)NC1=O)C2=O (stereo partly shown)",
    "DC50": "> 0.1 µM"
  }
]

Let's switch to this compound now.
Q: // lookup DC50 for CCn1c2c(c3ccc(OCCCCOC4CCN(c5ccc(C(=O)N[C@H]6CC[C@H](Oc7ccc(C#N)c(Cl)c7)CC6)nn5)CC4)cc31)C(=O)N(C1CCC(=O)NC1=O)C2=O (stereo partly shown)
Result: 0.025 to 0.1 µM

* * *

molecular target: androgen receptor (Homo sapiens, UniProt P10275, T878A); construct: host or cells: LNCaP.FGC; assay: Androgen receptor degradation assay using Western blot analysis; assay type: cell-based; details: read-out: AR DC50 (concentration needed for 50% AR degradation); LNCaP.FGC cells, serial 10x dilutions from 100 nM
Readout: DC50

Please review the following examples before continuing.
[
  {
    "Molecule": "CCn1c2c(c3ccc(OCCCCN4CCN(c5ccc(C(=O)N[C@H]6CC[C@H](Oc7ccc(C#N)c(Cl)c7)CC6)nn5)CC4)cc31)C(=O)N(C1CCC(=O)NC1=O)C2=O (some centres unmarked)",
    "Tgt": "androgen receptor (Homo sapiens, UniProt P10275, T878A)",
    "Result": "< 10 nM"
  },
  {
    "Molecule": "CCn1c2c(c3ccc(OCCOC4CC5(CCN(c6ccc(C(=O)N[C@H]7CC[C@H](Oc8ccc(C#N)c(Cl)c8)CC7)nn6)C5)C4)cc31)C(=O)N(C1CCC(=O)NC1=O)C2=O (some centres unmarked)",
    "Tgt": "androgen receptor (Homo sapiens, UniProt P10275, T878A)",
    "Result": "25 to 100 nM"
  },
  {
    "Molecule": "CCn1c2c(c3ccc(OCC(=O)N4CCN(c5ccc(C(=O)N[C@H]6CC[C@H](Oc7ccc(C#N)c(Cl)c7)CC6)nn5)CC4)cc31)C(=O)N(C1CCC(=O)NC1=O)C2=O (some centres unmarked)",
    "Tgt": "androgen receptor (Homo sapiens, UniProt P10275, T878A)",
    "Result": "25 to 100 nM"
  },
  {
    "Molecule": "CCn1c2c(c3ccc(OCCOC4CC5(CCN(c6ccc(C(=O)N[C@H]7CC[C@H](Oc8ccc(C#N)c(Cl)c8)CC7)nn6)CC5)C4)cc31)C(=O)N(C1CCC(=O)NC1=O)C2=O (some centres unmarked)",
    "Tgt": "androgen receptor (Homo sapiens, UniProt P10275, T878A)",
    "Result": "10 to 25 nM"
  }
]

Q: Quick one: DC50 of CCn1c2c(c3ccc(OCCOCC4CCN(c5ccc(C(=O)N[C@H]6CC[C@H](Oc7ccc(C#N)c(Cl)c7)CC6)nn5)CC4)cc31)C(=O)N(C1CCC(=O)NC1=O)C2=O (some centres unmarked) ?
Result: 25 to 100 nM

* * *

biological target: androgen receptor (Homo sapiens, UniProt P10275, T878A); construct: host or cells: LNCaP.FGC; assay: Androgen receptor degradation assay using Western blot analysis; format: cell-based; conditions: read-out: AR DC50 (concentration needed for 50% AR degradation); LNCaP.FGC cells, serial 10x dilutions from 100 nM
The following molecules are listed with their measured DC50 values.

Here is how some molecules turned out for DC50.
[
  {
    "Molecule": "CCn1c2c(c3ccc(OCCCN4CC5(CCN(c6ccc(C(=O)N[C@H]7CC[C@H](Oc8ccc(C#N)c(Cl)c8)CC7)nn6)CC5)C4)cc31)C(=O)N(C1CCC(=O)NC1=O)C2=O (stereo partly drawn) [Compound 96]",
    "DC50": "10 to 25 nM"
  },
  {
    "Molecule": "CCn1c2c(c3ccc(OC4CCN(CC5CCN(c6ccc(C(=O)N[C@H]7CC[C@@H](Oc8ccc(C#N)c(Cl)c8)CC7)nn6)CC5)CC4)cc31)C(=O)N(C1CCC(=O)NC1=O)C2=O (stereo partly drawn)",
    "DC50": "10 to 25 nM"
  }
]

Now let's try a different one.
Q: Would you kindly share the measured DC50 for CCn1c2c(c3ccc(OCCCN4C5CCC4CN(c4ccc(C(=O)N[C@H]6CC[C@H](Oc7ccc(C#N)c(Cl)c7)CC6)nn4)C5)cc31)C(=O)N(C1CCC(=O)NC1=O)C2=O (stereo partly drawn) ?
Result: 10 to 25 nM

* * *

Molecular target: androgen receptor (Homo sapiens, UniProt P10275, T878A)
Construct: host or cells: LNCaP.FGC
Assay: Androgen receptor degradation assay using Western blot analysis
Format: cell-based
Settings: read-out: AR DC50 (concentration needed for 50% AR degradation); LNCaP.FGC cells, serial 10x dilutions from 100 nM
Text: Cells not treated with any of the above-mentioned compounds are used as a negative control. The internal loading control GAPDH was detected using a mouse monoclonal antibody (1:5000) (GTX627408, GeneTex International Corp., HsinChu City, Taiwan R.O.C.) and a goat anti-mouse HRP-conjugated secondary antibody (1:5000 dilution) (C04001, Croyez Bioscience Co., Ltd., Taipei City, Taiwan R.O.C.). […]
DC50 values by entry

[
  {
    "Compound": "CCn1c2c(c3ccc(OCCCN4CCN(c5ccc(C(=O)N[C@H]6CC[C@H](Oc7ccc(C#N)c(Cl)c7)CC6)nn5)CC4)cc31)C(=O)N(C1CCC(=O)NC1=O)C2=O (some centres unmarked) [Compound 29]",
    "DC50": "0.01 to 0.025 µM"
  }
]

Q: Field request: DC50 | item: CCn1c2c(c3ccc(OCCCN4CCC5(C4)CN(c4ccc(C(=O)N[C@H]6CC[C@H](Oc7ccc(C#N)c(Cl)c7)CC6)nn4)C5)cc31)C(=O)N(C1CCC(=O)NC1=O)C2=O (some centres unmarked)
Result: < 0.01 µM

Q: Follow-up item: CCn1c2c(c3ccc(OCCCN4CCC(C5CCN(c6ccc(C(=O)N[C@H]7CC[C@H](Oc8ccc(C#N)c(Cl)c8)CC7)nn6)CC5)CC4)cc31)C(=O)N(C1CCC(=O)NC1=O)C2=O (some centres unmarked)
Result: 0.01 to 0.025 µM

Q: Subsequent entry: CCn1c2c(c3ccc(OCCOC4CC5(CCN(c6ccc(C(=O)N[C@H]7CC[C@H](N(C)c8ccc(C#N)c(Cl)c8)CC7)nn6)CC5)C4)cc31)C(=O)N(C1CCC(=O)NC1=O)C2=O (some centres unmarked)
Result: 0.01 to 0.025 µM

Q: Proceed to CCn1c2c(c3ccc(OCCOC4CCC5(CC4)CN(c4ccc(C(=O)N[C@H]6CC[C@H](Oc7ccc(C#N)c(Cl)c7)CC6)nn4)C5)cc31)C(=O)N(C1CCC(=O)NC1=O)C2=O (some centres unmarked)
Result: 0.025 to 0.1 µM

* * *

molecular target: androgen receptor (Homo sapiens, UniProt P10275, T878A); construct: host or cells: LNCaP.FGC; assay: Androgen receptor degradation assay using Western blot analysis; format: cell-based; details: 24 h, LNCaP.FGC cells, 100 nM, 24 hr, normalized to GAPDH, untreated cells = 100%; read-out: Androgen Receptor Remaining (%)
List of remaining activity at 0.1 µM values.
Give your result in % as a bare value.

Recorded results for 4 compounds are shown here.
[
  {
    "Compound": "Cn1c2c(c3cccc(OCCCN4CCN(c5ccc(C(=O)N[C@H]6CC[C@H](Oc7ccc(C#N)c(Cl)c7)CC6)nn5)CC4)c31)C(=O)N(C1CCC(=O)NC1=O)C2=O (some centres unmarked)",
    "remaining activity at 0.1 µM (%)": 26
  },
  {
    "Compound": "Cn1c2c(c3ccc(OCCCN4CCN(c5ccc(C(=O)N[C@H]6CC[C@H](Oc7ccc(C#N)c(Cl)c7)CC6)nn5)CC4)cc31)C(=O)N(C1CCC(=O)NC1=O)C2=O (some centres unmarked)",
    "remaining activity at 0.1 µM (%)": 16
  },
  {
    "Compound": "Cn1c2c(c3cc(OCCN4CCN(c5ccc(C(=O)N[C@H]6C(C)(C)[C@H](Oc7ccc(C#N)c(Cl)c7)C6(C)C)nc5)CC4)ccc31)C(=O)N(C1CCC(=O)NC1=O)C2=O (some centres unmarked)",
    "remaining activity at 0.1 µM (%)": 37
  },
  {
    "Compound": "Cn1c2c(c3ccc(OCCN4CCCN(c5ccc(C(=O)N[C@H]6CC[C@H](Oc7ccc(C#N)c(Cl)c7)CC6)nn5)CC4)cc31)C(=O)N(C1CCC(=O)NC1=O)C2=O (some centres unmarked)",
    "remaining activity at 0.1 µM (%)": 26
  }
]

Q: # get_value(readout= remaining activity at 0.1 µM, system= androgen receptor (Homo sapiens, UniProt P10275, T878A)) for Cn1c2c(c3ccc(OCCCN4CCC5(CC4)CN(c4ccc(C(=O)N[C@H]6CC[C@H](Oc7ccc(C#N)c(Cl)c7)CC6)nn4)C5)cc31)C(=O)N(C1CCC(=O)NC1=O)C2=O (some centres unmarked)
Result: 6
